# tested on: T1, plasma-derived human activated protein C (APC) (UniProt P04070 43-461)
# T1 chain: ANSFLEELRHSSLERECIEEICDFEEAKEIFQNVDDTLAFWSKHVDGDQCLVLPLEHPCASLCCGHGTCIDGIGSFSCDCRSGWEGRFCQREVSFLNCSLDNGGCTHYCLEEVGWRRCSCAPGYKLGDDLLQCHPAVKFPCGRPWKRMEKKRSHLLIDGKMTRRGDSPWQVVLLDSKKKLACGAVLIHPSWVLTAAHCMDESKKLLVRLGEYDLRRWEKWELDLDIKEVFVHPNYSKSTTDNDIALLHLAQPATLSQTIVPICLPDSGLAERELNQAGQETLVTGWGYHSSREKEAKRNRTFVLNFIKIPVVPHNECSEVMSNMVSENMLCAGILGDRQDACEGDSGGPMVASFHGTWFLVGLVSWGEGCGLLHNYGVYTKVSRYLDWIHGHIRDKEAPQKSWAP
# procedure details: SPR
pKd: −log10 of the molar value.
Classification field: class 1 = pKd at or over 8; class 0 = pKd under 8.

The following binders have reported results that may help.
binder="TPP-24750 (antibody, V domains shown) VH: EVQLVESGGGLVQPGGSLRLSCAASGFTFSNYYISWVRQAPGKGLEWVGRIKSKTDGGTTDYAAPVKGRFTISRDDSKNSLYLQMNSLKTEDTAVYYCAREGDYFDYWGQGTLVTVSS" cat="class 0"
binder="TPP-24777 (antibody, V domains shown) VH: EVQLVESGGGLVQPGGSLRLSCAASGFTFSSYYLNWVRQAPGKGLEWVSYISSSSSTIYYADSVKGRFTISRDDSKNSLYLQMNSLKTEDTAVYYCAREGDYFDYWGQGTLVTVSS" cat="class 0"
binder="TPP-24766 (antibody, V domains shown) VH: EVQLVESGGGLVQPGGSLRLSCAASGFTFSNAYMSWVRQAPGKGLEWVGRIKSKTDGGTTDYAAPVKGRFTISRDDSKNSLYLQMNSLKTEDTAVYYCAREGDYFDYWGQGTLVTVSS" cat="class 0"
binder="TPP-24745 (antibody, V domains shown) VH: EVQLVESGGGLVQPGGSLRLSCAASGFTFSNYYINWVRQAPGKGLEWVSYISSSSSTIYYADSVKGRFTISRDDSKNSLYLQMNSLKTEDTAVYYCAREGDYFDYWGQGTLVTVSS" cat="class 0"
binder="TPP-24727 (antibody, V domains shown) VH: EVQLVESGGGLVQPGGSLRLSCAASGFTFSNYYLNWVRQAPGKGLEWVGDIRLKSNNYEKHYAESVKGRFTISRDDSKNSLYLQMNSLKTEDTAVYYCAREGDYFDYWGQGTLVTVSS VL: DIVLTQSPASLAVSPGQRATITCKASESVDSFGATFMHWYQQKPGQPPKLLIYLASNLESGVPARFSGSGSGTDFTLTINPVEADDTANYYCQQNNEDPYTFGQGTKLEIKR" cat="class 0"

Hi team, for TPP-24744 (antibody, V domains shown) VH: EVQLVESGGGLVQPGGSLRLSCAASGFTFSNYYINWVRQAPGKGLEWVGDIRLKSNNYEKHYAESVKGRFTISRDDSKNSLYLQMNSLKTEDTAVYYCAREGDYFDYWGQGTLVTVSS , is the recorded pKd at or above 8?
class 0

Reported pKd at or above 8? TPP-24740 (antibody, V domains shown) VH: EVQLVESGGGLVQPGGSLRLSCAASGFTFSNYYMSWVRQAPGKGLEWVGDIRLKSNNYEKHYAESVKGRFTISRDDSKNSLYLQMNSLKTEDTAVYYCAREGDYFDYWGQGTLVTVSS
class 0

hey, is pKd for this one >= 8? TPP-24739 (antibody, V domains shown) VH: EVQLVESGGGLVQPGGSLRLSCAASGFTFSNYYMNWVRQAPGQGLEWMGRIIPILGIANYAQKFQGRFTISRDDSKNSLYLQMNSLKTEDTAVYYCAREGDYFDYWGQGTLVTVSS
class 1

Dear colleague, could you confirm whether TPP-24743 (antibody, V domains shown) VH: EVQLVESGGGLVQPGGSLRLSCAASGFTFSNYYMSWVRQAPGQGLEWMGRIIPILGIANYAQKFQGRFTISRDDSKNSLYLQMNSLKTEDTAVYYCAREGDYFDYWGQGTLVTVSS has pKd at or above 8?
class 1

Could you tell me if the measured pKd of TPP-24738 (antibody, V domains shown) VH: EVQLVESGGGLVQPGGSLRLSCAASGFTFSNYYMNWVRQAPGKGLEWVGRIKSKTDGGTTDYAAPVKGRFTISRDDSKNSLYLQMNSLKTEDTAVYYCAREGDYFDYWGQGTLVTVSS reaches 8 or more?
class 1
